test system: Eotaxin-3 (CCL26) release in human whole blood stimulated with IL-4; experiment: Human whole blood eotaxin-3 assay (IL-4 stimulated, Eotaxin-3 release); type: cell-based; settings: Homo sapiens, Hec50, 48 h
reported_metric: pEC50
Units for pEC50: none; it is -log10 of a concentration expressed in mol/L.

CN(C)C(=O)c1ccc(C2=CCN(Cc3cc4c(-c5ccc(N)nc5)ccnc4n3C)CC2)c(C2CC2)c1
6.07
Cc1cc(C(=O)N(C)C)cc(F)c1C1=CCN(C(C)c2cc3c(-c4ccc(N)cn4)ccnc3n2C)CC1 (stereo not drawn)
7.20
[2H]C([2H])([2H])N(C(=O)c1ccc(C2=CCN([C@@H](C)c3cc4c(-c5ncc(N)cc5C(F)(F)F)ccnc4n3C)CC2)cc1)C([2H])([2H])[2H]
4.75
[2H]C([2H])([2H])N(C(=O)c1ccc(C2=CCN([C@H](C)c3cc4c(-c5ccc(N)cn5)ccnc4n3C)CC2)cc1)C([2H])([2H])[2H]
6.12
C[C@H]1C[C@@H](c2ccc(C(=O)N(C)C)cc2)CCN1Cc1cc2c(-c3ccc(N)cn3)ccnc2n1C (single isomer, unassigned)
5.51

Could you now consider this next compound?
## Input Which pEC50 is listed for [2H]C([2H])([2H])N(C(=O)c1ccc(C2=CCN([C@@H](C)c3cc4c(-c5ncc(N)cc5C)ccnc4n3C)CC2)cc1)C([2H])([2H])[2H] ?
## Output 6.12
